Reference source: paper PMC9794698

So I've got a bunch of molecules here, and I need their melting point values.

Example cases with answers are listed next.
Problem: In one line, give reported melting point of the entry CCOC(=O)c1ccc(NC(=O)C2(OC(=O)c3ccccc3Cl)CCCCC2)cc1 .
Result: 130 to 132 °C

Problem: Quick one: give measured melting point for CCOC(=O)c1ccc(NC(=O)C2(O)CCCCC2)cc1
Result: 160 to 163 °C

Problem: Please report melting point for the following molecule: CCOC(=O)c1ccc(NC(=O)C2(OC(=O)c3ccccc3I)CCCCC2)cc1
Result: 148 to 150 °C

Problem: Quote melting point reported for CCOC(=O)c1ccc(NC(=O)C2(OC(=O)c3ccccc3)CCCCC2)cc1 please.
Result: 140 to 142 °C

Problem: Fill in melting point for record CCOC(=O)c1ccc(NC(=O)C2(OC(=O)c3ccc4ccccc4n3)CCCCC2)cc1
Result: 103 to 105 °C

Could you report melting point for every entry in the following list?
1. CCOC(=O)c1ccc(NC(=O)C2(OC(=O)C=Cc3ccc(C(F)(F)F)cc3)CCCCC2)cc1
2. CCOC(=O)c1ccc(NC(=O)C2(OC(=O)c3ccc(Cl)cc3)CCCCC2)cc1
3. CCOC(=O)c1ccc(NC(=O)C2(OC(=O)CS)CCCCC2)cc1
4. CCOC(=O)c1ccc(NC(=O)C2(OC(=O)CNC(=O)c3ccc(NC(=O)OC(C)(C)C)cc3)CCCCC2)cc1
5. CCOC(=O)c1ccc(N2C(=O)OC3(CCCCC3)C2=O)cc1

Result:
145 to 147 °C
193 to 195 °C
108 to 110 °C
115 to 117 °C
143 to 145 °C
